Numbers sourced from the supplement of paper PMC6555819.

- Test system: LXRa homodimer (NR concentration 270 nM)
- ASSAY EXPLANATION: PBM binding z-score (relative to random genomic background probes); higher = stronger binding; sequences stand for … in GC…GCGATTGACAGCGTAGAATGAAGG

BIOPOLYMER SEQUENCE | PBM binding z-score
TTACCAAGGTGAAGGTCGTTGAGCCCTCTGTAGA | -0.339
AGAATGAGGTTATTAAGATCAGGGACTTGCGGTC | 0.193
CGAACTAGGTCAAGGACAGTGTATCTCCGCACGC | 0.431

====

Entries and their PBM binding z-score values follow.
- System: RARa homodimer (NR concentration 270 nM)
- ASSAY EXPLANATION: PBM binding z-score (relative to random genomic background probes); higher = stronger binding; sequences stand for … in GC…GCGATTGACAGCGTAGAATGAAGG

BIOPOLYMER SEQUENCE | PBM binding z-score
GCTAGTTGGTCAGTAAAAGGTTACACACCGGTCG | 0.524
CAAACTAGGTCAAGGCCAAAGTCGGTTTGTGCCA | -0.0524
TCTCGGAGGACACGAAGCTCAGAGCTTTCCAGAG | -0.988

====

- Tested on: FXR:RXRa (NR concentration 270 nM, RXRa partner concentration 90 nM)
- ASSAY EXPLANATION: PBM binding z-score (relative to random genomic background probes); higher = stronger binding; sequences stand for … in GC…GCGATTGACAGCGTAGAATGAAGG
So basically: PBM binding z-score at 4 or higher? That is satisfied. Lower than 4? That is not satisfied.

BIOPOLYMER SEQUENCE | ASSIGNED LABEL
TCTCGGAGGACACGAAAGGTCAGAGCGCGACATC | not satisfied
CCTAGTTGGTCAGGAGGGCACACACCGGATATGA | not satisfied
GGTGCTAGGTCAACTGATGGTCAGCTAAAGCTCG | satisfied
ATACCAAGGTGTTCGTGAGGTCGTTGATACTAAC | not satisfied
CCTACTGAGCCATTCAGAGGTCATTGATCATATG | not satisfied
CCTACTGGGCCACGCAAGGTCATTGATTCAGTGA | not satisfied
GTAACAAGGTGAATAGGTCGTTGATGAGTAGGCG | not satisfied
TCAGACAGGTGAAGGTAACTCATGTACGCAGTCG | not satisfied
TCTAGTTGGTCAAAGGTCACACGCTCGAAATGCG | satisfied
CCTACTGGGCCATTCAGAGGCCATTGATCATATG | not satisfied
CCTTACGGGTCACCCCAGGTTATAGCATCGGAGT | satisfied
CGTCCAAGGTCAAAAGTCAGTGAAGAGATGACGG | satisfied

====

- System: PPARg:RXRa (NR concentration 180 nM, RXRa partner concentration 90 nM)
- ASSAY EXPLANATION: PBM binding z-score (relative to random genomic background probes); higher = stronger binding; sequences stand for … in GC…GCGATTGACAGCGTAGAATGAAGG
Entries and their PBM binding z-score values follow.

BIOPOLYMER SEQUENCE | TARGET ENTITY | PBM binding z-score
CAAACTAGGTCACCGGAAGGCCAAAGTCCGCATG | PPARg:RXRa (NR concentration 180 nM, RXRa partner concentration 90 nM) | 8.65
ATACCAAGGTGATCGTGAGGTCGTTAATACTAAC | PPARg:RXRa (NR concentration 180 nM, RXRa partner concentration 90 nM) | 0.445
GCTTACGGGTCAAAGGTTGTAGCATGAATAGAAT | PPARg:RXRa (NR concentration 180 nM, RXRa partner concentration 90 nM) | 9.83
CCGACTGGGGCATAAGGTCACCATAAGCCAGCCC | PPARg:RXRa (NR concentration 180 nM, RXRa partner concentration 90 nM) | 4.56
AAAATGAGGTTACCAAAGATCAGGGAAACGCTTG | PPARg:RXRa (NR concentration 180 nM, RXRa partner concentration 90 nM) | 3.49
TCAGACAGTTGAAGGTAACTCAGGTACGCAGTCG | PPARg:RXRa (NR concentration 180 nM, RXRa partner concentration 90 nM) | 0.579
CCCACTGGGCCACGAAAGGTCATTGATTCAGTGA | PPARg:RXRa (NR concentration 180 nM, RXRa partner concentration 90 nM) | 4.92
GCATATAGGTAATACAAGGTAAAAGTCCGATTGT | PPARg:RXRa (NR concentration 180 nM, RXRa partner concentration 90 nM) | 1.14
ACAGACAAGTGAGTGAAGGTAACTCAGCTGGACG | PPARg:RXRa (NR concentration 180 nM, RXRa partner concentration 90 nM) | 0.674
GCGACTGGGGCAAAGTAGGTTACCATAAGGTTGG | PPARg:RXRa (NR concentration 180 nM, RXRa partner concentration 90 nM) | 2.59
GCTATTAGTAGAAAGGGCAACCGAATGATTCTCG | PPARg:RXRa (NR concentration 180 nM, RXRa partner concentration 90 nM) | 2.17
CCTAGCAGACCAGGGTCACTCAAGCATTTCGCTT | PPARg:RXRa (NR concentration 180 nM, RXRa partner concentration 90 nM) | 0.556
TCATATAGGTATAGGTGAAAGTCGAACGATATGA | PPARg:RXRa (NR concentration 180 nM, RXRa partner concentration 90 nM) | 1.72
AATACAGGGTCATCGTATGCCAGAGTACGCACAG | PPARg:RXRa (NR concentration 180 nM, RXRa partner concentration 90 nM) | 6.62
TCTTGTAGATCAAGCAGGTTAGGAAAGCCTGAGT | PPARg:RXRa (NR concentration 180 nM, RXRa partner concentration 90 nM) | -0.615
